molecular target: Human ATX protein (Homo sapiens, UniProt Q13822); construct: made in house; assay: ATX biochemical assay (FRET, FS-3 substrate); settings: FRET assay, FS-3 2 μM, ATX 1.0 μg/mL, 30 minutes preincubation, 2 hours reaction at room temperature; read-out: IC50
pIC50: −log10 of the molar value. Where a name gives a salt, the structure may show the parent alone.
readout: pIC50

1) O=C(C[C@H]1CC[C@H](C(=O)O)CC1)N1CCc2c(C3CC3)nn(Cc3ccc(F)cc3)c2C1 [Example 5-38]	≥ 7.00
2) O=C(C[C@H]1CC[C@H](C(=O)O)CC1)N1CCc2c(C(F)(F)F)nn(Cc3cc(F)cc(Cl)c3)c2C1 [Example 5-3]	≥ 7.00
3) O=C(N1CCc2c(C(F)(F)F)nn(Cc3ccc(F)cc3)c2C1)C12CCN(CC1)CC2 [Example 1-36, TFA salt]	6.30 to 6.60
4) O=C(C[C@H]1CC[C@H](C(=O)O)CC1)N1CCc2c(C(F)(F)F)nn(Cc3ccc(Cl)cc3F)c2C1 [Example 5-1]	≥ 7.00
5) O=C(O)CCCC(=O)N1CCc2c(C(F)(F)F)nn(Cc3ccc(Cl)cc3F)c2C1 [Example 14-2]	≥ 7.00
6) CN1CCC(CC(=O)N2CCc3c(C(F)(F)F)nn(Cc4ccc(F)cc4)c3C2)C1 (stereo not drawn) [Example 10-5]	6.60 to 7.00
7) CC(C)N1CCC(CC(=O)N2CCc3c(C(F)(F)F)nn(Cc4ccc(Cl)cc4F)c3C2)CC1 [Example 11-2, HCl salt]	≥ 7.00
8) COC(=O)C1CCN(CC(=O)N2CCc3c(C(F)(F)F)nn(Cc4ccc(F)cc4)c3C2)CC1 [Example 12-1]	≥ 7.00
9) O=C(C[C@H]1CC[C@H](C(=O)O)CC1)N1CCc2c(CO)nn(Cc3ccc(F)cc3)c2C1 [Example 5-45]	≥ 7.00
10) N#C[C@H]1CC[C@@H](CC(=O)N2CCc3c(C(F)(F)F)nn(Cc4ccc(F)cc4)c3C2)CC1 [Example 21-1]	≥ 7.00
11) O=C(C[C@H]1CC[C@H](C(=O)O)CC1)N1CCc2c(-c3cccnc3)nn(Cc3ccc(F)cc3)c2C1 [Example 5-40]	≥ 7.00
12) O=C(C[C@H]1CC[C@H](C(=O)O)CC1)N1CCc2c(C(F)(F)F)nn(Cc3ccc(Cl)cc3Cl)c2C1 [Example 7-7]	≥ 7.00
13) NC12CCC(CC(=O)N3CCc4c(C(F)(F)F)nn(Cc5ccc(F)cc5)c4C3)(CC1)CC2 [Example 9-10, TFA salt]	6.60 to 7.00
14) CN1CCC(CC(=O)N2CCc3c(C(F)(F)F)nn(Cc4ccc(Cl)cc4F)c3C2)CC1 [Example 1-2]	≥ 7.00
15) N#CC1CCN(CC(=O)N2CCc3c(C(F)(F)F)nn(Cc4ccc(F)cc4)c3C2)C1 (stereo not drawn) [Example 12-11, TFA salt]	≥ 7.00

----------
target: Human ATX protein (Homo sapiens, UniProt Q13822); construct: made in house; assay: ATX biochemical assay (FRET, FS-3 substrate); details: FRET assay, FS-3 2 μM, ATX 1.0 μg/mL, 30 minutes preincubation, 2 hours reaction at room temperature; read-out: IC50
pIC50: −log10 of the molar value. Counter-ions that a name gives are not always drawn.
Quick list: pIC50 per entry.
readout: pIC50

1) O=C(O)C1CCN(CC(=O)N2CCc3c(C(F)(F)F)nn(Cc4ccc(F)cc4)c3C2)CC1	≥ 7.00
2) O=C(CC1CCN2CCCC2C1)N1CCc2c(C(F)(F)F)nn(Cc3ccc(Cl)cc3F)c2C1 (stereo not drawn) [Example 1-33, TFA salt]	≥ 7.00
3) O=C(CC1C2CC3CC1CC(C(=O)O)(C3)C2)N1CCc2c(C(F)(F)F)nn(Cc3ccc(F)cc3)c2C1 (stereo not drawn)	≥ 7.00
4) CCOC(=O)C1CCC(CC(=O)N2CCc3c(C(F)(F)F)nn(Cc4ccccc4)c3C2)CC1 (stereo not drawn)	≥ 7.00
5) CCOC(=O)C1CCC(CC(=O)N2CCc3c(C(F)(F)F)nn(Cc4cccc(F)c4)c3C2)CC1 (stereo not drawn)	≥ 7.00
6) O=C(N[C@H]1CC[C@@H](C(=O)O)CC1)N1CCc2c(C(F)(F)F)nn(Cc3ccc(Cl)cc3F)c2C1	≥ 7.00
7) O=C(O)CCNCC(=O)N1CCc2c(C(F)(F)F)nn(Cc3ccc(F)cc3)c2C1 [Example 13-16, TFA salt]	≥ 7.00
8) N[C@H]1CC[C@H](CC(=O)N2CCc3c(C(F)(F)F)nn(Cc4ccc(Cl)cc4F)c3C2)CC1 [Example 9-19, TFA salt]	≥ 7.00
9) CCOC(=O)C1CCC(CC(=O)N2CCc3c(C(F)(F)F)nn(CC4CCCCC4)c3C2)CC1 (stereo not drawn)	≥ 7.00
10) CC(C)(C)OC(=O)N1CCCC(CC(=O)N2CCc3c(C(F)(F)F)nn(Cc4ccc(F)cc4)c3C2)C1 (stereo not drawn)	≥ 7.00
11) O=C(CCc1nnn[nH]1)N1CCc2c(C(F)(F)F)nn(Cc3ccc(F)cc3)c2C1	≥ 7.00
12) CCOC(=O)C1CCC(CC(=O)N2CCc3cnn(Cc4ccc(Cl)cc4F)c3C2)CC1 (stereo not drawn)	≥ 7.00
13) O=C(C[C@H]1CC[C@@H](C(=O)O)CC1)N1CCc2cnn(Cc3ccc(Cl)cc3F)c2C1	≥ 7.00
14) CCOC(=O)C1CCC(CC(=O)N2CCc3c(C(F)(F)F)nn(Cc4ccc(C(F)(F)F)cc4)c3C2)CC1 (stereo not drawn)	≥ 7.00
15) CC(C)(C)OC(=O)N1CC(CC(=O)N2CCc3c(C(F)(F)F)nn(Cc4ccc(Cl)cc4F)c3C2)C[C@@H]1C(=O)O (stereo partly drawn)	≥ 7.00
